System: HT29
PROCEDURE_DETAILS: monolayer cytotoxicity test (modified propidium iodide assay), HT29
Assay type: cell-based
EXPERIMENTAL_CONDITIONS: Colon
RECORDED_METRIC: IC50 antitumoral activity (µg/mL)
Please respond with the number in µg/mL and leave the unit unwritten.

// IC50 antitumoral activity lookup, key: ON=C(c1ccc(C(=NO)N2CC2)nc1)N1CC1
0.200

Subsequent entry: ON=C(c1ccc(C(=NO)N2CC2)o1)N1CC1
0.481

Subsequent entry: ON=C(c1cccc(C(=NO)N2CC2)n1)N1CC1
0.117

Subsequent entry: ON=C(c1cccc(C(=NO)N2CC2)c1)N1CC1
0.329

New cases:
// IC50 antitumoral activity lookup, key: ON=C(c1ccc(C(=NO)N2CC2)cc1)N1CC1
0.258

Subsequent entry: ON=C(c1cc(C(=NO)N2CC2)cc(C(=NO)N2CC2)c1)N1CC1
0.670
